Tested on: K-562 leukemia growth, % test/control
Assay: Anticancer human tumor K-562 cell line growth inhibition; active = viability on the fitted dose curve at most 10% of control; inactive = the rest;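 also: spheroids exposed to compounds for 7 days; 100% = DMSO vehicle wells and lower values mean fewer viable cells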
Conditions: second compound 10 µM; first compound 0.00949 µM; spheroids with HUVEC and MSC
Form entry, call: pick from 1 = active, -1 = inactive

Identify the outcome logged in this assay for the compound shown: Nc1ccn(C2OC(CO)C(O)C2(F)F)c(=O)n1 (centres undefined) + NC1CCC(NC2CC2c2ccccc2)CC1
1

Identify the outcome logged in this assay for the compound shown: O=C(C=Cc1cccc(S(=O)(=O)Nc2ccccc2)c1)NO + NC1CC1c1ccc(-c2cccc(O)c2)cc1
-1

Identify the outcome logged in this assay for the compound shown: Nc1ccccc1NC(=O)c1ccc(CNC(=O)OCc2cccnc2)cc1 + NC1CCC(NC2CC2c2ccccc2)CC1
-1

Identify the outcome logged in this assay for the compound shown: Nc1ccccc1NC(=O)c1ccc(CNC(=O)OCc2cccnc2)cc1 + NC1CC1c1ccc(-c2cccc(O)c2)cc1
-1
